B1: TPR t1 (parent)
chain: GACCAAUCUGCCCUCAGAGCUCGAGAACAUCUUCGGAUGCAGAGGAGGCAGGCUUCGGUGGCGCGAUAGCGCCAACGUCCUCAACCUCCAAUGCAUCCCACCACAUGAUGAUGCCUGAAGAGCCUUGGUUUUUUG

Variants of: B1
assayInfo: polymerase ribozyme fitness, log enrichment relative to wild type (log ratio); higher = more active; in vitro selection for triplet polymerase activity
Overview of reported polymerase ribozyme fitness (log ratio) across a group of variants:
Please give the numeric answer without any surrounding text.

Below, each entry is followed by its recorded polymerase ribozyme fitness (log ratio) result.
# var, polymerase ribozyme fitness (log ratio)
data = [
    ("C62U C124G", 1.52),
    ("C28A C79A A111C U112G", -6.04),
    ("C13G A24G A27G C56G A111C", -7.83),
]

Inquiry: Read off the recorded polymerase ribozyme fitness (log ratio) for C22U C53G G61A U106A A118G
Reply text: -5.66

Inquiry: Read off the recorded polymerase ribozyme fitness (log ratio) for A68U C124U
Reply text: -5.86

Each recorded value in this set is attributed to the RNAGym collection of RNA variant scans (doi:10.1073/pnas.2313332121).
